System: FL5.12
Test: Induction of vacuolation in mouse FL5.12A cells assessed as vacuolation score at 2.5 uM measured at 3 hrs by fluorescence microscopic analysis
Type: functional
The following compounds are shown together with reported Activity values.

[
  {
    "structure string": "CCCCCCCCCCCCCCc1ccc(CO[C@H]2CN[C@H](CO)C2)cc1.Cl",
    "Activity": 3
  },
  {
    "structure string": "CCCCCC/C=C/c1ccc(CO[C@H]2CN[C@H](CO)C2)cc1.Cl",
    "Activity": 70
  },
  {
    "structure string": "CCCCCCCCCCCCCCc1ccc(CO[C@@H]2CN[C@@H](CO)C2)cc1.Cl",
    "Activity": 4
  },
  {
    "structure string": "CCCCCCCCC/C=C/CO[C@H]1CN[C@H](CO)C1.Cl",
    "Activity": 20
  },
  {
    "structure string": "CCCC/C=C/c1ccc(CO[C@H]2CN[C@H](CO)C2)cc1.Cl",
    "Activity": 5
  },
  {
    "structure string": "CCCCCC/C=C/c1ccc([C@H]2CCN[C@@H]2CO)cc1.Cl",
    "Activity": 84
  }
]
